B1: Zinc finger MYM-type protein 6, residues 427 to 504; numbered along this chain, O95789 (parent)
chain: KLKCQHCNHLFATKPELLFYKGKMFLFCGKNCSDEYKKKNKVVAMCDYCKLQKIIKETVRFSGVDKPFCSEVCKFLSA

# Variants of: B1
# Protocol Notes: abundance fitness (aPCA) (normalised: wild type 0, dead -1); higher = more abundant; growth selection in yeast, the domain comes from the species named
# Measurement Setup: Homo sapiens
Exercise: state measured abundance fitness for each of the variants provided.

Mutation Name: K30S
abundance fitness: -0.049
--
Mutation Name: A78N
abundance fitness: -0.301
--
Mutation Name: F68R
abundance fitness: -0.516
--
Mutation Name: C73G
abundance fitness: -0.638
--
Mutation Name: D47S
abundance fitness: 0.311
--
Mutation Name: C28E
abundance fitness: -0.671

Hi there! I need abundance fitness for each item below, if you can.
1. P67M
2. Y36R
3. N31S
4. F61P
5. E71R
6. A44E

0.952
-0.26
-0.042
-0.308
-0.111
-0.112

These measurements were taken from the Human Domainome abundance scans (Beltran et al. 2025).
